FYI, the data here is from patent US12617765B2.

Examples of molecules with documented Selectivity CB2 follow.
# systemTested: human CB2 receptor (Homo sapiens, UniProt P34972)
# Construct: host or cells: CHO-K1
# Sequence (P34972 whole entry): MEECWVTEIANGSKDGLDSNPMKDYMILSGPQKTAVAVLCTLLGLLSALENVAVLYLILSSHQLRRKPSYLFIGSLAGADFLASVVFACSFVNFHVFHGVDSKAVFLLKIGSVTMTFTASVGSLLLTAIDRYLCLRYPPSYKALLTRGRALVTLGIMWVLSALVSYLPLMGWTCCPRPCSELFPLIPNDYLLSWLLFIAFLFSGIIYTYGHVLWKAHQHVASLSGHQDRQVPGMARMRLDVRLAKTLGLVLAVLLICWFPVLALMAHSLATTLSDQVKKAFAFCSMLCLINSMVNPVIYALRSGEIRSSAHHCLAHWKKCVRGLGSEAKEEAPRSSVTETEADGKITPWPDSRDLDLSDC
# protocolText: CB2 radioligand competitive binding assay ([3H]CP 55,940 displacement)
# runParameters: fold difference in selectivity between CB1 and CB2 binding, in the column of the receptor with the higher binding affinity
Please reply with the bare figure in fold and do not write the unit itself.

Below: 4 molecules and their reported Selectivity CB2.
CCCCCc1cc(O)c(C/C=C(\C)CCC=C(C)C)c2c1C(=O)OC(CC)O2 (stereo not drawn) [Compound 16]	2.04
CCCc1cc(O)c(C/C=C(\C)CCC=C(C)C)c2c1C(=O)OCO2 [Compound 18]	3.88
CCCCCc1cc(O)c(C/C=C(\C)CCC=C(C)C)c2c1C(=O)OC(C)(COC)O2 (stereo not drawn) [Compound 11]	4.46
CCCCCc1cc(O)c(C/C=C(\C)CCC=C(C)C)c2c1C(=O)OC(CC(C)=O)(c1ccc(OC)cc1)O2 (stereo not drawn) [Compound 17]	5.45

Then there is this molecule:
// query Quick check: Selectivity CB2 of CCCCCc1cc(O)c(C/C=C(\C)CCC=C(C)C)c2c1C(=O)OC(CC(C)=O)O2 (stereo not drawn) [Compound 14] ?
// result 2.64

====

Examples of compounds with documented pIC50 follow.
# systemTested: human CB2 receptor (Homo sapiens, UniProt P34972)
# Construct: host or cells: CHO-K1
# protocolText: CB2 radioligand competitive binding assay ([3H]CP 55,940 displacement)
pIC50: −log10 of the molar value.

Below: 4 compounds and their reported pIC50.
CCCc1cc(O)c(C/C=C(\C)CCC=C(C)C)c2c1C(=O)OC(c1ccccc1)O2 (centres unmarked)	5.60 to 6.00
CCCCCc1cc(O)c(C/C=C(\C)CCC=C(C)C)c2c1C(=O)OC(C)(COC)O2 (centres unmarked)	> 6.00
CCCCCc1cc(O)c(C/C=C(\C)CCC=C(C)C)c2c1C(=O)OC(CC(C)=O)(c1ccccc1)O2 (centres unmarked)	> 6.00
CCCCCc1cc(O)c(C/C=C(\C)CCC=C(C)C)c2c1C(=O)OC(c1ccccc1)O2 (centres unmarked)	5.60 to 6.00

Then there is this compound:
// query Quick check: pIC50 of `CCCc1cc(O)c(C/C=C(\C)CCC=C(C)C)c2c1C(=O)OCO2` ?
// result 5.60 to 6.00

====

# systemTested: human CB1 receptor (Homo sapiens)
# Construct: host or cells: CHO-K1
# Sequence (P21554 whole entry): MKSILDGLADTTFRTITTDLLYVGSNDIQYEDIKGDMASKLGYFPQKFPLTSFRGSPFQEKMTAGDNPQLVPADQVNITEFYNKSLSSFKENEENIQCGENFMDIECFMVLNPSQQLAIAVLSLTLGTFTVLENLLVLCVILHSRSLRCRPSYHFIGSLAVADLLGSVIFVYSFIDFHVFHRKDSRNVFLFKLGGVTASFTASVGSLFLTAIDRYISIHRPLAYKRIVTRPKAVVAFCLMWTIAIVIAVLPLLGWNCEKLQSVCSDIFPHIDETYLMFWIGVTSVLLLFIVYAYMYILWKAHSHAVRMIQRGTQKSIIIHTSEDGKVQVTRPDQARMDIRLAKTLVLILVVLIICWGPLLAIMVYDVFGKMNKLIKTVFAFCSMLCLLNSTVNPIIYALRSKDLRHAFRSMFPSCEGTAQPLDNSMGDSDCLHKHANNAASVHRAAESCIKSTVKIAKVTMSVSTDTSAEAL
# protocolText: CB1 radioligand competitive binding assay ([3H]CP 55,940 displacement)
# runParameters: 0.8 nM [3H]CP 55,940, membranes of CHO-K1 cells expressing human CB1 receptor; read-out: CB1 IC50
assayReadout: IC50

CCCCCc1cc(O)c(C/C=C(\C)CCC=C(C)C)c2c1C(=O)OC(CC)O2 (stereo not shown) [Compound 16]	2.5 to 4.99 µM
CCCCCc1cc(O)c(C/C=C(\C)CCC=C(C)C)c2c1C(=O)OCO2 [Compound 1]	> 5 µM
CCCCCc1cc(O)c(C/C=C(\C)CCC=C(C)C)c2c1C(=O)OC(CC(C)=O)(c1ccc(OC)cc1)O2 (stereo not shown) [Compound 17]	2.5 to 4.99 µM

// query Quick check: IC50 of CCCCCc1cc(O)c(C/C=C(\C)CCC=C(C)C)c2c1C(=O)OC(CC(C)=O)O2 (stereo not shown) [Compound 14] ?
// result 2.5 to 4.99 µM
